Measured values drawn from the supplement of paper PMC10065799 for this set.

# TARGET SYSTEM: EPHB2 (UniProt P29323)
# Sequence (P29323 whole entry, looked up): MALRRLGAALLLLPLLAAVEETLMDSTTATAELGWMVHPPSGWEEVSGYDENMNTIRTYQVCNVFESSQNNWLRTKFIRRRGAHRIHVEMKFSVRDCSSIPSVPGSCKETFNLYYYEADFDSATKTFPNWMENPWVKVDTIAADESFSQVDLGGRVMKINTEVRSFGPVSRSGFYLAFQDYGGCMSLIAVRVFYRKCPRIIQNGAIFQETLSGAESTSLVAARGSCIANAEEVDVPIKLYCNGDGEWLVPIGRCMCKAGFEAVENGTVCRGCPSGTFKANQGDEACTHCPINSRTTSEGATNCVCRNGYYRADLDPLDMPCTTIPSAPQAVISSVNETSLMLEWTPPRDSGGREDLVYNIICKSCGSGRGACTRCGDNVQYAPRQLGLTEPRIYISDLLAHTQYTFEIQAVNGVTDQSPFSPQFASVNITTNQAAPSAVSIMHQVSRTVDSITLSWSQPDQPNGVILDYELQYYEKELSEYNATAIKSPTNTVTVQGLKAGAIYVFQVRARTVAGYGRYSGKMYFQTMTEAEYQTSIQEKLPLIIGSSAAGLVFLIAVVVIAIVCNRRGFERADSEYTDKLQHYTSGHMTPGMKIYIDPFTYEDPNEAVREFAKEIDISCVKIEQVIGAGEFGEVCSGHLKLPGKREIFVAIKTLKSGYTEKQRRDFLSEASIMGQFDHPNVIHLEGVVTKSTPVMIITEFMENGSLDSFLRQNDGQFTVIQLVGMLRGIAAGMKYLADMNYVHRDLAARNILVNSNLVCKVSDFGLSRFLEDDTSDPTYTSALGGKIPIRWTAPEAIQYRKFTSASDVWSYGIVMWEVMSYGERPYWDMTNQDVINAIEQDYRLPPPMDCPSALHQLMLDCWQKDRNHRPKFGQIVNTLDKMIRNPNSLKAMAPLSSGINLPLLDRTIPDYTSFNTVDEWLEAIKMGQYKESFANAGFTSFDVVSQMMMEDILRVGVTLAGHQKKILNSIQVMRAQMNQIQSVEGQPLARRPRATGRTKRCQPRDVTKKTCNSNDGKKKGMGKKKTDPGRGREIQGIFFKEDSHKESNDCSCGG
# MEASUREMENT PROTOCOL: phosphorylation enrichment, bacterial display (enrichment ratio); higher = better substrate or ligand; peptides without Tyr show the background;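 further: 11-residue human phosphosite peptides and single-mutation variants displayed on the E. coli surface, counted by deep sequencing, each peptide's frequency after selection divided by its frequency in the unselected input library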;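 further: frequency after pTyr selection over input frequency; kinase dosed for 20-30% of maximal phosphorylation in three min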
The threshold is inclusive: phosphorylation enrichment of exactly 0.5 counts as Yes; values below receive No.

# example entries with known answers
VRSVDYVLFRS [FAM189B_Y361]: Yes
LIGRRYDDPEV [HSPA9_Y128]: Yes
SDFSSYARTSI [TERT_Y949_YF]: Yes
FPSLPYSPVSS [CAMKK2_Y128_C123Y_YF]: No
YRTGHYLCNAC [GATA1_Y223_D218Y]: No

Problem: State whether the measured phosphorylation enrichment reaches 0.5, counting equality as reaching it, for CSHMFYGKQCC [ADAMTS16_Y1211_K1209M]
Result: Yes

Problem: Quick check, phosphorylation enrichment >= 0.5? SEPDLYYDPRG [PKP1_Y160_C161Y]
Result: Yes

Problem: Please check the record SHSMRYFDTSV [HLA-C_Y31_A35S] and state if its phosphorylation enrichment is at or above 0.5.
Result: No

Problem: Exam item: decide whether the reported phosphorylation enrichment for CPFNLYAAQLS [HGD_Y40_E42A_YF] is at least 0.5.
Result: Yes

Problem: Threshold query (phosphorylation enrichment >= 0.5) on FGYPGYQSKHY [TIMP3_Y177]
Result: No

Problem: Dear colleague, could you confirm whether EKKQTYGSCRK [LACTB_Y473_R469K] has phosphorylation enrichment at or above 0.5?
Result: No

Problem: Assess whether reported phosphorylation enrichment for RNFVRYVQGLK [VWF_Y1400] sits at 0.5 or higher.
Result: No

Problem: Textbook exercise: given the entry LIHLHYIRRDY [BBS4_Y43_K46R] , state whether its phosphorylation enrichment is greater than or equal to 0.5.
Result: Yes

Problem: Determine whether measured phosphorylation enrichment meets or exceeds 0.5 for DHAGMYGLGDR [MAPT_Y18_T17M]
Result: Yes

Problem: Does phosphorylation enrichment meet or surpass 0.5 for GKSHIYFWTLE [EML2_Y230] ?
Result: Yes

Problem: State whether the measured phosphorylation enrichment reaches 0.5, counting equality as reaching it, for GLAELYEYQKK [CKAP5_Y1854_K1857Q]
Result: No

Problem: Does PINEPYGDDLD [JUP_Y693_M697L] have a reported phosphorylation enrichment of at least 0.5?
Result: Yes

Problem: Can VVRSLYEDLED [VHL_Y185_I180V] be said to have phosphorylation enrichment at or above 0.5?
Result: Yes

Problem: Reported phosphorylation enrichment reaches at least 0.5 for QTEGEYSSLEH [IDH3B_Y171] ?
Result: Yes
